- Tested on: SNB-75 CNS
- protocol details: NCI-60 one-dose screen, 48 h (100 = growth as untreated, 0 = no growth, -100 = all killed)
- condition summary: 10 µM unless noted
The panel holds about 83,000 compounds, 20% with a hit somewhere; the sample as a whole holds those more often.
# Lookup of reported growth keyed by entry
reported property: growth (%)

• COC(=O)C1(C)COP(=O)(Nc2ccc(OC)cc2)OC1 (centres undefined) = 92.1
• Cn1c2c(c(=O)[nH]c1=O)NC1=C(C(=O)c3ccccc31)C1(C=C(O)c3ccccc31)N2 (centres undefined) = 92.1
• CCN(CCO)CCNc1ccc(C)c2sc3cc(Cl)ccc3c(=O)c12 = 62.5
• CCOc1cccc(/C=N\Nc2nc(=O)cc(C(=O)OC)s2)c1O = 77.8
• COc1ccc(-n2c(C(O)c3ccccc3)n[nH]c2=S)cc1 (centres undefined) = 89.6
• C=C[C@@H]1CCC/C=C/[C@@H]2C[C@H](O)C[C@H]2[C@H](O)/C=C/C(=O)O1 = 33.8
• CC[C@]1(O)C[C@@H]2CN(CCc3c([nH]c4ccccc34)[C@@](C(=O)OC)(c3cc4c(cc3OC)N(C)[C@H]3[C@@](O)(C(=O)OC)[C@H](OC(=O)CCCBr)[C@]5(CC)C=CCN6CC[C@]43[C@@H]65)C2)C1 = 13.2
• Nc1ccn(C2O[C@H](CO)[C@@H](O)[C@H]2O)c(=O)n1 (some centres undefined) = 76.9
• O=C(Nc1ccc(Cl)cc1)c1cc2ccccc2cc1OP(=O)(O)O = 24.2
